- assay explanation: qHTS assay to identify small molecule phospholipidosis (PLD) inducers (AID 1259344)
- test context: HepG2 phospholipidosis, LipidTOX Red imaging, 24 h; series mostly up to 38.3 µM
Records with an inconclusive call do not appear. Active and inactive are the calls of the source. Calls follow the shape of the dose curve; as a rule, active = well fitted activation curve with a large enough effect; inconclusive = small, poorly fitted or top-dose-only effect; inactive = flat fitted curve, though single readings scatter.
experimental readout: PLD induction

{"mol": "CC(C)C[C@H](NC(=O)[C@@H](Cc1c[nH]c2ccccc12)NC(=O)[C@H](Cc1ccc(O)cc1)NC(=O)[C@H](CO)NC(=O)[C@H](Cc1c[nH]c2ccccc12)NC(=O)[C@H](Cc1cnc[nH]1)NC(=O)[C@@H]1CCC(=O)N1)C(=O)N[C@@H](CCCN=C(N)N)C(=O)N1CCC[C@@H]1C(=O)NCC(N)=O", "observed value": "inactive"}
{"mol": "C[C@@H]1C/C=C/C=C/C=C/C=C/[C@H](O[C@@H]2O[C@H](C)[C@@H](O)[C@H](N)[C@@H]2O)C[C@@H]2O[C@](O)(C[C@@H](O)C[C@H]3O[C@@H]3/C=C/C(=O)O1)C[C@H](O)[C@H]2C(=O)O", "observed value": "inactive"}
{"mol": "CCCCC[C@H](O)/C=C/[C@H]1[C@H](O)CC(=O)[C@@H]1CCCCCCC(=O)O", "observed value": "inactive"}
